- targetOrTestSystem: recombinant human cGAS (Homo sapiens (Human))
- experimentSummary: In vitro inhibition assay of cGAS activity (cGAMP production, RapidFire mass spectrometry)
- Type: biochemical
- conditionSet: 10 nM recombinant human cGAS, 60 nM 75-bp dsDNA, ATP, GTP, room temperature 3 hours, read-out: IC50 (μM), In vitro inhibition assay for Compounds 95-348
Structures can show the parent of a compound that is named as a salt.

molecule: CN1CCOCC1C(=O)N1CCn2c(c(-c3cn[nH]c3)c3ccc(Cl)c(Cl)c32)C1 (stereo not shown) [Example 309]
IC50 [µM]: 0.0427

molecule: OCCC1CCn2c1c(-c1cn[nH]c1)c1ccc(Cl)c(Cl)c12 (single isomer, unassigned; isomer 1) [Example 242]
IC50 [µM]: 0.464

molecule: O=C(CCc1ncc(F)cn1)N1CCn2c(c(-c3cn[nH]c3)c3ccc(Cl)c(Cl)c32)C1 [Example 325]
IC50 [µM]: 0.0626

molecule: O=C(Cc1[nH]c2c(Cl)c(Cl)ccc2c1-c1cn[nH]c1)NCc1cc[nH]n1 [Example 178]
IC50 [µM]: 0.0413

molecule: CN1CC(=O)N(CC(=O)N2CCn3c(c(-c4cn[nH]c4)c4ccc(Cl)c(Cl)c43)C2)C1=O [Example 311]
IC50 [µM]: 0.043

molecule: CN1CCOC[C@H]1CC(=O)N1CCn2c(c(-c3cn[nH]c3)c3c(OCC#N)cc(Cl)c(Cl)c32)C1 [Example 115]
IC50 [µM]: 0.0288

molecule: NCCn1cc(-n2cc(-c3cn[nH]c3)c3ccc(Cl)c(Cl)c32)nn1 [Example 214, hydrochloride]
IC50 [µM]: 0.0686

---

Property: IC50; scope: individual compounds
- targetOrTestSystem: recombinant human cGAS (Homo sapiens (Human))
- experimentSummary: In vitro inhibition assay of cGAS activity (cGAMP production, RapidFire mass spectrometry)
- Format: biochemical
- conditionSet: 10 nM recombinant human cGAS, 60 nM 75-bp dsDNA, ATP, GTP, room temperature 3 hours, read-out: IC50 (μM), In vitro inhibition assay for Compounds 95-348
- Method: Expression and Purification of Recombinant cGAS Protein: Insert cDNA encoding full-length of human cGAS into a modified bacterial expression vector containing an in-frame His6-tag. Induce the E. coli strain BL21(DE3) harboring the plasmid with 1 mM IPTG (Isopropyl β-D-1-thiogalactopyranoside) at 18° C. overnight. […]
testReadout: IC50 (µM)

compound: CS(=O)(=O)NC1CCn2c1c(-c1cn[nH]c1)c1ccc(Cl)c(Cl)c12 (stereo not shown) [Example 238]
testReadout: IC50
valueObserved: 0.046
//
compound: O=C(NC1CCc2c(-c3cn[nH]c3)c3ccc(Cl)c(Cl)c3n2C1)C1CCOCC1 (stereo not shown) [Example 96]
testReadout: IC50
valueObserved: 0.0449
//
compound: N#CCNc1cc(Cl)c(Cl)c2c1c(-c1cn[nH]c1)c1n2CCNC1=O [Example 135]
testReadout: IC50
valueObserved: 0.0486
//
compound: OCCn1cc(-n2cc(-c3cn[nH]c3)c3ccc(Cl)c(F)c32)nn1 [Example 218]
testReadout: IC50
valueObserved: 0.0679

---

- targetOrTestSystem: recombinant human cGAS (Homo sapiens (Human))
- experimentSummary: In vitro inhibition assay of cGAS activity (cGAMP production, RapidFire mass spectrometry)
- Format: biochemical
- conditionSet: 10 nM recombinant human cGAS, 60 nM 75-bp dsDNA, ATP, GTP, room temperature 3 hours, read-out: IC50 (μM), In vitro inhibition assay for Compounds 95-348
Lab note: anything with IC50 below 0.02 µM is marked Condition met; values at 0.02 µM or higher are marked Condition not met.

compound: Cc1nnc(-c2[nH]c3c(Cl)c(Cl)ccc3c2-c2cn[nH]c2)s1
assignedClass: Condition not met
//
compound: O[C@@H]1C[C@H](Oc2cc(Cl)c(Cl)c3[nH]cc(-c4cn[nH]c4)c23)[C@@H](O)C1 (racemic) [Example 220]
assignedClass: Condition not met
//
compound: O=C(NCc1[nH]c2c(Cl)c(Cl)ccc2c1-c1cn[nH]c1)c1cscn1
assignedClass: Condition not met
//
compound: O=C(Nc1cc(Cl)c(Cl)c2[nH]c(CCO)c(-c3cn[nH]c3)c12)C(F)F
assignedClass: Condition met
//
compound: COCCS(=O)(=O)NC1CCc2c(-c3cn[nH]c3)c3ccc(Cl)c(Cl)c3n2C1 (centres unmarked)
assignedClass: Condition met
//
compound: Cc1nc(C(=O)N2CCn3c(c(-c4cn[nH]c4)c4c(OCC#N)cc(Cl)c(Cl)c43)C2)no1
assignedClass: Condition met
//
compound: CC(=O)N1CCn2c(c(-c3cn[nH]c3)c3c(NC(=O)C(F)(F)F)cc(Cl)c(Cl)c32)C1
assignedClass: Condition not met

---

Property: IC50; scope: individual molecules
- targetOrTestSystem: recombinant human cGAS (Homo sapiens (Human), UniProt Q8N884)
- Sequence (Q8N884 whole entry): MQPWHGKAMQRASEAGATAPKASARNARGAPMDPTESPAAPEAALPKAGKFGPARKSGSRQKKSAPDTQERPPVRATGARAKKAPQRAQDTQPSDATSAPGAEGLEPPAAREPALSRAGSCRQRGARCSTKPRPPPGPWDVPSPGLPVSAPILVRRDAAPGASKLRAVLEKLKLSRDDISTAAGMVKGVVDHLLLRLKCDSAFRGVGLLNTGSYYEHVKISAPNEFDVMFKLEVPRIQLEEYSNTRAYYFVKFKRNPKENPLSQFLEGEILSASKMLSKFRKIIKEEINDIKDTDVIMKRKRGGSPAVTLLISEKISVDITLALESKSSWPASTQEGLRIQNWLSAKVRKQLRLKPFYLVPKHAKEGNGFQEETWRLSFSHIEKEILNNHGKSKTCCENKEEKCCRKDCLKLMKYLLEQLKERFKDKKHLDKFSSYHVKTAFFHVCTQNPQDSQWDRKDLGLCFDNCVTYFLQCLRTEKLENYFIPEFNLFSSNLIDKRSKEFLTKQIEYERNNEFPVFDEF
- experimentSummary: In vitro inhibition assay of cGAS activity (cGAMP production, RapidFire mass spectrometry)
- Format: biochemical
- conditionSet: 10 nM recombinant human cGAS, 60 nM 75-bp dsDNA, ATP, GTP, room temperature 3 hours, read-out: IC50 (μM), In vitro inhibition assay for Compounds 1-94
- Method: Expression and Purification of Recombinant cGAS Protein: Insert cDNA encoding full-length of human cGAS into a modified bacterial expression vector containing an in-frame His6-tag. Induce the E. coli strain BL21(DE3) harboring the plasmid with 1 mM IPTG (Isopropyl β-D-1-thiogalactopyranoside) at 18° C. overnight. […]

molecule: CC(=O)NCc1[nH]c2c(Cl)c(Cl)ccc2c1-c1cn[nH]c1
targetOrTestSystem: recombinant human cGAS (Homo sapiens (Human), UniProt Q8N884)
IC50 (µM): 0.0246
--
molecule: NS(=O)(=O)N1CCn2c(c(-c3cn[nH]c3)c3ccc(Cl)c(Cl)c32)C1
targetOrTestSystem: recombinant human cGAS (Homo sapiens (Human), UniProt Q8N884)
IC50 (µM): 0.0525
--
molecule: O=C1c2c(-c3cn[nH]c3)c3ccc(Cl)c(Cl)c3n2CCN1CCO
targetOrTestSystem: recombinant human cGAS (Homo sapiens (Human), UniProt Q8N884)
IC50 (µM): 0.0411
--
molecule: CC(=O)NC1CCc2c(-c3cn[nH]c3)c3ccc(Cl)c(Cl)c3n2C1 (single isomer, unassigned) [Example 21]
targetOrTestSystem: recombinant human cGAS (Homo sapiens (Human), UniProt Q8N884)
IC50 (µM): 0.0243
--
molecule: CS(=O)(=O)NCCn1cc(-c2cn[nH]c2)c2c(OCC#N)cc(Cl)c(Cl)c21
targetOrTestSystem: recombinant human cGAS (Homo sapiens (Human), UniProt Q8N884)
IC50 (µM): 0.0815
--
molecule: CS(=O)(=O)NC1CCc2c(-c3cn[nH]c3)c3ccc(Cl)c(Cl)c3n2C1 (single isomer, unassigned) [Example 22]
targetOrTestSystem: recombinant human cGAS (Homo sapiens (Human), UniProt Q8N884)
IC50 (µM): 0.0225
--
molecule: NC(=O)COc1cc(Cl)c(Cl)c2[nH]cc(-c3cn[nH]c3)c12
targetOrTestSystem: recombinant human cGAS (Homo sapiens (Human), UniProt Q8N884)
IC50 (µM): 0.0242
--
molecule: O=C(O)C1CCCn2c(c(-c3cn[nH]c3)c3ccc(Cl)c(Cl)c32)C1 (single isomer, unassigned) [Example 25]
targetOrTestSystem: recombinant human cGAS (Homo sapiens (Human), UniProt Q8N884)
IC50 (µM): 0.0412

---

Property: IC50; scope: individual compounds
- System: cGAS activity in THP1 cells (IFNb as marker)
- experimentSummary: Cellular assay to measure cGAS activity (IFNb production in PMA-differentiated THP1 cells stimulated by RDG-Adenovirus-GFP)
- Format: cell-based, human
- conditionSet: Homo sapiens, THP-1, THP1 cells, PMA differentiated, RDG-Adenovirus-GFP 1000 MOI, IFNb AlphaLISA, overnight incubation; read-out: IC50 (μM), Cellular assay for Compounds 95-348

compound: CC(=O)N1CCn2c(c(-c3cn[nH]c3)c3c(NC(=O)C(F)(F)F)cc(Cl)c(Cl)c32)C1
qual: =
IC50 [µM]: 4.8
--
compound: CC(=O)N1CCn2c(c(-c3cn[nH]c3)c3c(NC(=O)CO)cc(Cl)c(Cl)c32)C1
qual: >
IC50 [µM]: 10
--
compound: CC(=S)NCc1[nH]c2c(Cl)c(Cl)ccc2c1-c1cn[nH]c1
qual: =
IC50 [µM]: 0.895
--
compound: OCCn1cc(-n2cc(-c3cn[nH]c3)c3ccc(Cl)c(F)c32)nn1
qual: =
IC50 [µM]: 3.27
--
compound: Cn1c(CNC(=O)CO)c(-c2cn[nH]c2)c2ccc(Cl)c(Cl)c21
qual: =
IC50 [µM]: 0.498
--
compound: CC(=O)NCCn1cc(-c2cn[nH]c2)c2c(OCC#N)cc(Cl)c(Cl)c21
qual: =
IC50 [µM]: 3.42
--
compound: CC(=O)N1CCn2c(c(-c3cn[nH]c3)c3c(OCC(N)=O)cc(Cl)c(Cl)c32)C1
qual: =
IC50 [µM]: 5.87
--
compound: N#CCOc1cc(Cl)c(Cl)c2[nH]nc(-c3cn[nH]c3)c12
qual: =
IC50 [µM]: 2.32
--
compound: N#CCOc1cc(Cl)c(Cl)c2c1c(-c1cn[nH]c1)c1n2CCN(c2ncccn2)C1
qual: =
IC50 [µM]: 0.854
--
compound: Cc1nnc(-c2[nH]c3c(Cl)c(Cl)ccc3c2-c2cn[nH]c2)s1
qual: =
IC50 [µM]: 0.363
--
compound: CS(=O)(=O)NC1CCn2c1c(-c1cn[nH]c1)c1ccc(Cl)c(Cl)c12 (stereo not drawn)
qual: >
IC50 [µM]: 10
--
compound: Cn1cc(-n2c(CO)c(-c3cn[nH]c3)c3ccc(Cl)c(Cl)c32)nn1
qual: =
IC50 [µM]: 2.83
--
compound: O=C(NCc1[nH]c2c(Cl)c(Cl)ccc2c1-c1cn[nH]c1)c1nnco1
qual: =
IC50 [µM]: 1.32
--
compound: O=C(NCc1[nH]c2c(Cl)c(Cl)ccc2c1-c1cn[nH]c1)C1(O)COC1
qual: =
IC50 [µM]: 3.2
--
compound: OCC(CO)COc1cc(Cl)c(Cl)c2[nH]cc(-c3cn[nH]c3)c12
qual: =
IC50 [µM]: 1.29

Data origin, for the record: patent US20230391786A1
